B1: F1*; the commonest letter at each place (parent)
chain: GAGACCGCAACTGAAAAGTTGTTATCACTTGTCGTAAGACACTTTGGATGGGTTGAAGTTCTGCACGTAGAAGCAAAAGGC

- Variants of: B1
- assay.method.text: fraction ligated after 30 min (ligated reads / total reads); higher = more ligase activity
- assay.conditions: with F1*sub RNA substrate (template-directed ligation), 42 °C
Please use Met whenever fraction ligated is not below 0.7, and Not met whenever it is.

Check out these entries, answers already filled in.
[[record]]
mutation_annotation = "C33G A36C"
cat = "Met"

[[record]]
mutation_annotation = "G38A C40T"
cat = "Met"

[[record]]
mutation_annotation = "C26A T29G"
cat = "Met"

[[record]]
mutation_annotation = "G34T G47C"
cat = "Not met"

[[record]]
mutation_annotation = "C26A T30G"
cat = "Met"

[[record]]
mutation_annotation = "T23C G34A"
cat = "Met"

[[record]]
mutation_annotation = "C28T T49G"
cat = "Met"

[[record]]
mutation_annotation = "T29C A56G"
cat = "Met"


As a next step, examine the variant that follows.
Dear colleague, could you confirm whether `T45A` has fraction ligated at or above 0.7?
Met

Data origin: the supplement of paper PMC6755084
